The values you see were collected from patent US20220204609A1.

biological target: T1, Claudin18.2 on cells (human, UniProt P56856-2 1-261); experiment: flow cytometry on NUGC4 cells, antibody at 1.5 µg/mL
T1 construct: whole, on cells; the cell line of each result is named under assay or readout

{"columns": ["binder", "mean fluorescence intensity"],
 "data": [
  ["IMAB362 (antibody, human IgG1, kappa, V domains shown) VH: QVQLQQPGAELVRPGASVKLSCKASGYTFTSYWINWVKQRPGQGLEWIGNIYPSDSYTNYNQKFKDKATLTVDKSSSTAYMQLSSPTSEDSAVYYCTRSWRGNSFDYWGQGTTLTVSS VL: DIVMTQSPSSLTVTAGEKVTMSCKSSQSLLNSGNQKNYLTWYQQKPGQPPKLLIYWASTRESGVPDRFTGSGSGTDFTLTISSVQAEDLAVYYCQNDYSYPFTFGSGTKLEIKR", 97100],
  ["CLD389-279-IgG1 (antibody, V domains shown, Complete IgG1 made in HEK293 cells; also called C279; CLD389-C279) VH: EVQLVQSGGGVVQPGRSLRLSCAASGFTFSNYAMHWVRQAPGKGLEWVAVISYDGSNKYYADSVKGRFTISRDNSKNTLYLQMNSLRAEDTAVYYCARELRFFDWLLGRAFDIWGQGTMVTVSS VL: EIVMTQSPPSLSASVGDRVTITCRASQGIRNDLGWYQQKPGKAPKLLIYAASSLQSGVPSRFSGSGSGTDFTLTISSLQPEDFATYYCLQDYNYPWTFGQGTKLEIKR", 78300],
  ["CLD389-CA802-IgG1 (antibody, V domains shown, Complete IgG1 made in HEK293 cells) VH: QVQLVESGGGVVQPGRSLRLSCAASGFTFSSYAMHWVRQVPGKGLEWVAIISYDGSIKYYADSVKGQFTISRDNSKNTLSLQMNSLRPEDTAVYYCARDPTMVRGVRGMDVWGQGTTVTVSS VL: DIQMTQSPSSLSASVGDRVTITCRASQGIRNDLGWYQQKPGKAPKLLIYAASSLQSGVPSRFSGSGSGTDFTLTISSLQPEDFATYYCLQDYNYPLTFGGGTKLEIKR", 58100],
  ["CLDQ1-CA841-IgG1 (antibody, V domains shown, Complete IgG1 made in HEK293 cells) VH: QVQLVQSGAEVKKPGSSVKVSCKASGGTFSSYAISWVRQAPGQGLEWMGRIIPILGIANYAQKFQGRVTVTADKSTSTAYMELSSLRSEDTAVYYCARERDNWDPYYYYYGMDVWGQGTTVTVSS VL: DIQMTQSPSTLSASVGDRVTITCRASQSINSWLAWYQQKPGKAPKLLIYKASSLESGVPSRFSGSGSGTEFTLTISSLQPDDFATYYCQQYNSFPLTFGGGTKVEIKR", 13200]
]}
